assay_comment: Cytotoxicity against BALB/c mouse splenic lymphocytes co-cultured with C57BL/6 mouse splenic lymphocytes assessed as reduction of cell viability after 72 hrs
Type: cell-based, Splenic lymphocyte
study_conditions: BALB/c and C57BL/6, mouse
We begin with a simple list: items and their reported CC50 at 72 h.

| compound | observed_measurement |
| --- | --- |
| COC(=O)C(O)CCn1cnc2c(N)ncnc21 (racemic) | > 1000 µM |
| COC(=O)[C@@H](O)CCn1cnc2c(N)ncnc21 | > 1000 µM |
| COC(=O)[C@H](O)CCn1cnc2c(N)ncnc21 | > 1000 µM |

Find the measured CC50 at 72 h of COC(=O)C(=O)CCn1cnc2c(N)ncnc21 and report it.
> 1000 µM
